Test system: LOX IMVI
method summary: NCI-60 anticancer screen (SRB; single dose and five doses)
condition details: Homo sapiens, read-out: TGI
Classify as follows. Reported IC (TGI) greater than or equal to 10 µM: yes (1). Reported IC (TGI) below: no (0).

Cc1[nH]c(=S)sc1C(=O)/C=C/c1ccc([N+](=O)[O-])cc1 [2i]; no (0)

Exam item: Threshold query (IC (TGI) >= 10 µM) on Cc1[nH]c(=S)sc1C(=O)/C=C/c1cccc(Cl)c1 [2e]
Marked response: no (0)

Exam item: Threshold query (IC (TGI) >= 10 µM) on COc1cc(/C=C/C(=O)c2sc(=S)[nH]c2C)cc(OC)c1OC [2p]
Marked response: yes (1)

Exam item: Threshold query (IC (TGI) >= 10 µM) on Cc1[nH]c(=S)sc1C(=O)/C=C/c1cccc([N+](=O)[O-])c1 [2h]
Marked response: no (0)

Exam item: Threshold query (IC (TGI) >= 10 µM) on Cc1[nH]c(=S)sc1C(=O)/C=C/c1ccc(Cl)cc1 [2f]
Marked response: yes (1)

Exam item: Threshold query (IC (TGI) >= 10 µM) on Cc1[nH]c(=S)sc1C(=O)/C=C/c1ccc(F)cc1 [2c]
Marked response: yes (1)

---

Below, each of the compounds is paired with its reported IC50 value.
Tested on: SNB-19
method summary: cells
condition details: Homo sapiens, SNB-19

Answered cases to consult:
Cc1[nH]c(=S)sc1C(=O)/C=C/c1cccc([N+](=O)[O-])c1; 11.8 µM
Cc1[nH]c(=S)sc1C(=O)/C=C/c1ccc(Cl)cc1; 22.4 µM
Cc1[nH]c(=S)sc1C(=O)/C=C/c1cccc(Cl)c1; 17 µM

Here is another compound to look at.
Exam item: Item COc1cc(/C=C/C(=O)c2sc(=S)[nH]c2C)cc(OC)c1OC with SNB-19 - IC50?
Marked response: 13.2 µM

---

Tested on: HS 578T
method summary: NCI-60 anticancer screen (SRB; single dose and five doses)
condition details: Homo sapiens
pIC50: −log10 of the molar value.
Below, each of the compounds is paired with its reported pIC50 value.

Cc1[nH]c(=S)sc1C(=O)/C=C/c1ccc(Cl)cc1 [2f]; < 4.00
Cc1[nH]c(=S)sc1C(=O)/C=C/c1cccc(Cl)c1 [2e]; < 4.00
COc1cc(/C=C/C(=O)c2sc(=S)[nH]c2C)cc(OC)c1OC [2p]; < 4.00

Here is another compound to look at.
Exam item: # query: pIC50 of entry Cc1[nH]c(=S)sc1C(=O)/C=C/c1cccc([N+](=O)[O-])c1 [2h]
Marked response: 4.17

---

Test system: SK-OV-3
method summary: NCI-60 anticancer screen (SRB; single dose and five doses)
condition details: Homo sapiens, SK-OV-3, 48 h, read-out: Growth Percentage
Below, each of the compounds is paired with its reported activity at 10 µM value.
Respond numerically; units are % and should not be typed.

Answered cases to consult:
Cc1[nH]c(=S)sc1C(=O)/C=C/c1cccc(F)c1; 111
COc1ccc(/C=C/C(=O)c2sc(=S)[nH]c2C)cc1OC; 76.9
COc1cccc(/C=C/C(=O)c2sc(=S)[nH]c2C)c1OC; 85.6

Exam item: # query: activity at 10 µM of entry Cc1[nH]c(=S)sc1C(=O)/C=C/c1ccc(N(C)C)cc1
Marked response: 92.6

Exam item: # query: activity at 10 µM of entry Cc1[nH]c(=S)sc1C(=O)/C=C/c1ccc([N+](=O)[O-])cc1
Marked response: 108

Exam item: # query: activity at 10 µM of entry Cc1[nH]c(=S)sc1C(=O)/C=C/c1ccc(Br)cc1
Marked response: 96.7
